Hello, the source for this data is paper PMC6724046, in case you need it.

- Protocol: 50% cytotoxicity concentration (CC50) assay
- Assay type: cell-based, Feline
- Condition set: cat, CC50
Recorded endpoint: CC50 at 40 h (µM)

[[record]]
smi = "Nc1nc(Cl)nc2c1ncn2[C@H]1C[C@H](O)[C@@H](CO)O1"
unit_abbrev = "µM"
observed_value = 40.2


###

- System: F81 cells
- Protocol: 50% cytotoxicity concentration (CC50) assay
- Format: cell-based, Feline
Recorded endpoint: CC50

[[record]]
compound = "Cc1cc(C(C#N)c2ccc(Cl)cc2)c(Cl)cc1NC(=O)c1cc(I)cc(I)c1[O-].[Na+] (stereo not shown) [Closantel Sodium]"
study_system = "F81 cells"
observed_value = "19.1 µM"


###

- Test system: CPV
- Protocol: 50% antiviral efficacy concentration (EC50) assay, CPE-based
- Type: cell-based, Canine parvovirus
- Condition set: Canine parvovirus, F81 cells pretreated 1 h, CPV MOI 0.076, 40 h
pEC50: −log10 of the molar value. Structures can show the parent of a compound that is named as a salt.
Reported values of pEC50 for individual entries
Recorded endpoint: pEC50

[[record]]
molecule = "Nc1nc(Cl)nc2c1ncn2[C@H]1C[C@H](O)[C@@H](CO)O1"
study_system = "CPV"
observed_value = 6.49

[[record]]
molecule = "O=c1[nH]c(=O)n([C@H]2C[C@H](O)[C@@H](CO)O2)cc1C(F)(F)F"
study_system = "CPV"
observed_value = 5.03

[[record]]
molecule = "Cc1cc(C(C#N)c2ccc(Cl)cc2)c(Cl)cc1NC(=O)c1cc(I)cc(I)c1O (centres unmarked)"
study_system = "CPV"
observed_value = 5.11

[[record]]
molecule = "CC(=O)Oc1ccccc1C(=O)Nc1ncc([N+](=O)[O-])s1 [Nitazoxanide]"
study_system = "CPV"
observed_value = 5.57

[[record]]
molecule = "Nc1ccn([C@@H]2O[C@H](CO)[C@@H](O)C2(F)F)c(=O)n1 [Gemcitabine HCl]"
study_system = "CPV"
observed_value = 6.17


###

- Protocol: 50% cytotoxicity concentration (CC50) assay
- Type: cell-based, Feline
- Condition set: cat; F81 cells, 40 h incubation; read-out: CC50
Recorded endpoint: CC50 at 40 h (µM)

[[record]]
molecule = "CC(=O)Oc1ccccc1C(=O)Nc1ncc([N+](=O)[O-])s1 [Nitazoxanide]"
observed_value = 21


###

- Tested on: F81 cells
- Protocol: 50% cytotoxicity concentration (CC50) assay
- Assay type: cell-based, Feline
- Condition set: F81 cells, 40 h incubation; read-out: CC50
Where a name gives a salt, the structure may show the parent alone.
Reported values of CC50 for individual entries
Recorded endpoint: CC50 (µM)

[[record]]
compound = "Nc1ccn([C@@H]2O[C@H](CO)[C@@H](O)C2(F)F)c(=O)n1 [Gemcitabine HCl]"
study_system = "F81 cells"
unit_abbrev = "µM"
observed_value = 142

[[record]]
compound = "Nc1ccn([C@@H]2O[C@H](CO)[C@@H](O)C2(F)F)c(=O)n1 [Gemcitabine]"
study_system = "F81 cells"
unit_abbrev = "µM"
observed_value = 40

